# Luminescence signal for ATP measurement, day-1 Average values compiled below
Tested on: WI-38 cells
Assay: Long-term effects on cell viability (5 days, ATP; morphology, PI imaging)
Assay type: cell-based
Details: Batch 1; 10 μM; day-1; n = 6; day-0 luminescence = 320956 ± 24708
Write the value as a bare number.

{"COMPOUND STRING": "O=C(Nc1cccc(C(F)(F)F)c1)c1ccc([N+](=O)[O-])o1", "TARGET UNDER TEST": "WI-38 cells", "VAL": 474558}
{"COMPOUND STRING": "N=C1S/C(=C\\c2cn(-c3ccccc3)nc2-c2cccs2)C(=O)N1c1nccs1", "TARGET UNDER TEST": "WI-38 cells", "VAL": 435273}
{"COMPOUND STRING": "COC(=O)CCc1sc2c(c1[N+](=O)[O-])NC(=O)CCC2", "TARGET UNDER TEST": "WI-38 cells", "VAL": 544305}
{"COMPOUND STRING": "CCCN1C/C(=C\\c2ccc(F)cc2)C(=O)/C(=C/c2ccc(F)cc2)C1", "TARGET UNDER TEST": "WI-38 cells", "VAL": 426828}
{"COMPOUND STRING": "O=C1NCCCc2cc(Cl)sc21", "TARGET UNDER TEST": "WI-38 cells", "VAL": 461478}

Query: Input "COc1cccc(/C=C2\CN(C)C/C(=C\c3cccc(OC)c3OC)C2=O)c1OC" , output reported Luminescence signal for ATP measurement, day-1 Average.
Reply: 329880

Query: Input "[O-][n+]1onc2c3nsnc3c(Br)cc21" , output reported Luminescence signal for ATP measurement, day-1 Average.
Reply: 507143

###

Test system: FOXO3
Assay: qPCR analysis of FOXO3-regulated genes
Format: cell-based, human
Conditions: Homo sapiens; qPCR; WI-38 cells; 10 μM, n=4, 24 hrs; normalized by B2M; read-out: TXNIP Normalized fold change
RECORDED ENDPOINT: fold induction at 10 µM
Write the value as a bare number.

Previously resolved entries follow.
{"MOLECULE": "CCCC(=O)Nc1ccc(-c2cn3cccc(C)c3n2)cc1 [O12]", "TARGET UNDER TEST": "FOXO3", "fold induction at 10 µM": 0.909}
{"MOLECULE": "O=C(NCc1cccnc1)/C(=C\\c1cccc(Oc2ccccc2)c1)S(=O)(=O)c1ccccc1 [Gr-7A]", "TARGET UNDER TEST": "FOXO3", "fold induction at 10 µM": 0.12}
{"MOLECULE": "O=C1NCCCc2cc(Cl)sc21 [O1]", "TARGET UNDER TEST": "FOXO3", "fold induction at 10 µM": 1.11}
{"MOLECULE": "Cc1cc(C)c(C(=O)/C=C/c2ccccc2F)c(O)n1 [O18]", "TARGET UNDER TEST": "FOXO3", "fold induction at 10 µM": 0.297}

Now turn to the next molecule.
Query: Input O=C(Nc1cc(C(F)(F)F)ccc1Cl)c1ccc([N+](=O)[O-])o1 [Gr-1B] , output reported fold induction at 10 µM.
Reply: 1.94

###

Assay: Summary score for characterization of 38 core set hits
Conditions: human
RECORDED ENDPOINT: S = Sum of Negative scores
Write the value as a bare number.

Query: Input "Cc1ccc(S(=O)(=O)Nc2cccc3cccnc23)cc1" , output reported S = Sum of Negative scores.
Reply: 0

Query: Input "O=C(NCc1cccnc1)/C(=C/c1ccc(-c2ccc(Cl)cc2)o1)S(=O)(=O)c1ccccc1" , output reported S = Sum of Negative scores.
Reply: 1

Query: Input "CCc1ccc(Oc2nc3ccccn3c(=O)c2/C=C(\C#N)C(=O)NCc2ccco2)cc1" , output reported S = Sum of Negative scores.
Reply: 0

Query: Input "O=C(Nc1cccc(C(F)(F)F)c1)c1ccc([N+](=O)[O-])o1" , output reported S = Sum of Negative scores.
Reply: 0

Query: Input "COc1ccc(/C=C2\SC(=N)N(c3nccs3)C2=O)cc1" , output reported S = Sum of Negative scores.
Reply: 2

Query: Input "CNC(=O)/C(C#N)=C/c1c(Oc2ccc(C(C)(C)C)cc2)nc2ccccn2c1=O" , output reported S = Sum of Negative scores.
Reply: 0

Query: Input "O=C(Nc1nc(C23CC4CC(CC(C4)C2)C3)cs1)C(c1ccccc1)c1ccccc1" , output reported S = Sum of Negative scores.
Reply: 0

Query: Input "Cc1cc(C)c(C(=O)/C=C/c2ccccc2F)c(O)n1" , output reported S = Sum of Negative scores.
Reply: 0

Query: Input "O=C(Nc1cccc(Cl)c1)c1ccc([N+](=O)[O-])o1" , output reported S = Sum of Negative scores.
Reply: 1

Query: Input "[O-][n+]1onc2c3nsnc3c(Br)cc21" , output reported S = Sum of Negative scores.
Reply: 0

Query: Input "O=C(c1ccc([N+](=O)[O-])o1)N1CCc2ccccc21" , output reported S = Sum of Negative scores.
Reply: 0

Query: Input "O=[N+]([O-])c1ccccc1S(=O)(=O)Nc1cccc2cccnc12" , output reported S = Sum of Negative scores.
Reply: 1

Query: Input "NS(=O)(=O)c1ccc(NC(=O)c2ccc([N+](=O)[O-])o2)cc1" , output reported S = Sum of Negative scores.
Reply: 1

###

System: phosphorylated γH2A.X and TP53BP1
Assay: DNA damage marker analysis (immuno-staining)
Settings: human, 24 h
RECORDED ENDPOINT: P = Potential DNA-damaging
Write the value as a bare number.

Previously resolved entries follow.
{"COMPOUND": "O=C(/C(=C/c1ccc(Cl)cc1)c1nc2ccccc2[nH]1)c1ccccc1 [Gr-4D]", "P = Potential DNA-damaging": 0}
{"COMPOUND": "COc1cccc(/C=C2\\CN(C)C/C(=C\\c3cccc(OC)c3OC)C2=O)c1OC [O23]", "P = Potential DNA-damaging": 0}
{"COMPOUND": "O=C(c1ccc([N+](=O)[O-])o1)N1CCc2ccccc21 [O13]", "P = Potential DNA-damaging": 0}
{"COMPOUND": "Cc1cc(N)n(-c2ccccc2C(=O)O)n1 [Gr-6A]", "P = Potential DNA-damaging": 0}
{"COMPOUND": "O=C(Nc1cccc(Cl)c1)c1ccc([N+](=O)[O-])o1 [Gr-1D]", "P = Potential DNA-damaging": 1}
{"COMPOUND": "Oc1ncnc2sc3c(c12)CCC3 [O14]", "P = Potential DNA-damaging": 0}

Query: State measured P = Potential DNA-damaging of the compound O=C(NCc1cccnc1)/C(=C\c1ccc(Br)cc1)S(=O)(=O)c1ccccc1 [Gr-7B] with phosphorylated γH2A.X and TP53BP1.
Reply: 0

Query: State measured P = Potential DNA-damaging of the compound CCc1ccccc1NC(=O)c1ccc([N+](=O)[O-])o1 [Gr-1C] with phosphorylated γH2A.X and TP53BP1.
Reply: 1

Query: State measured P = Potential DNA-damaging of the compound O=C(/C=C/c1cn(-c2ccccc2)nc1-c1cccnc1)c1ccccc1 [Gr-6B] with phosphorylated γH2A.X and TP53BP1.
Reply: 0

Query: State measured P = Potential DNA-damaging of the compound CC(C)(C)c1ccc(OCC(=O)Nc2ccc3c4c(cccc24)C(=O)NC3=O)cc1 [O22] with phosphorylated γH2A.X and TP53BP1.
Reply: 0

Query: State measured P = Potential DNA-damaging of the compound CCc1ccc(Oc2nc3ccccn3c(=O)c2/C=C(\C#N)C(=O)NCc2ccco2)cc1 [Gr-5B] with phosphorylated γH2A.X and TP53BP1.
Reply: 0

Query: State measured P = Potential DNA-damaging of the compound CCCN1C/C(=C\c2ccc(F)cc2)C(=O)/C(=C/c2ccc(F)cc2)C1 [O15] with phosphorylated γH2A.X and TP53BP1.
Reply: 0

Query: State measured P = Potential DNA-damaging of the compound Cc1ccc(S(=O)(=O)Nc2cccc3cccnc23)cc1 [Gr-3B] with phosphorylated γH2A.X and TP53BP1.
Reply: 0

###

Experiment: Summary score for characterization of 38 core set hits
Conditions: human
RECORDED ENDPOINT: S = Sum of Negative scores

Previously resolved entries follow.
{"COMPOUND STRING": "CC(C)(C)c1ccc(OCC(=O)Nc2ccc3c4c(cccc24)C(=O)NC3=O)cc1", "RECORDED ENDPOINT": "S = Sum of Negative scores", "VAL": 0}
{"COMPOUND STRING": "O=C(NCc1cccnc1)/C(=C\\c1ccc(Br)cc1)S(=O)(=O)c1ccccc1", "RECORDED ENDPOINT": "S = Sum of Negative scores", "VAL": 1}
{"COMPOUND STRING": "Cc1cc(N)n(-c2ccccc2C(=O)O)n1", "RECORDED ENDPOINT": "S = Sum of Negative scores", "VAL": 0}
{"COMPOUND STRING": "Oc1ncnc2sc3c(c12)CCC3", "RECORDED ENDPOINT": "S = Sum of Negative scores", "VAL": 0}

Query: Input "Cc1ccc(NC(=O)c2ccc([N+](=O)[O-])o2)cc1C" , output reported S = Sum of Negative scores.
Reply: 2
